Here the recorded pKd is given for each entry.
SYSTEM NAME: T1, IFN-α4a (human, UniProt P05014 24-189)
T1 construct: Recombinant, HEK293; also called IFN-αM1
TEST: ProteOn SPR, cell supernatant;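 further: each binding measurement used just a single antigen concentration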
pKd: −log10 of the molar value.

BINDER	pKd
IFWM3393 (antibody, IgG1, V domains shown, mAb; IgG1/kappa said of the parent and of selected mAbs; also called IFWB3128) VH: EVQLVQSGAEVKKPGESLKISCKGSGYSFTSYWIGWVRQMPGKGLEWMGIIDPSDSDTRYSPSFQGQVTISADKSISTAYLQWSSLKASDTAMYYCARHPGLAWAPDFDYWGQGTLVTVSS VL: DIQMTQSPSSLSASVGDRVTITCRASQSITSSLNWYQQKPGKAPKLLIYFASSLQSGVPSRFSGSGSGTDFTLTISSLQPEDFATYYCQQSFDLPLTFGQGTKVEIK	9.78
IFWM3391 (antibody, IgG1, V domains shown, mAb; IgG1/kappa said of the parent and of selected mAbs; also called IFWB3126) VH: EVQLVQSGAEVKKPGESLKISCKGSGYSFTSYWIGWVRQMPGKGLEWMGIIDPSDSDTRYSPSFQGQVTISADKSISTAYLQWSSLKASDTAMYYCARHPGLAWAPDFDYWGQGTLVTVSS VL: DIQMTQSPSSLSASVGDRVTITCRASQSINNFLNWYQQKPGKAPKLLIYFASSLQSGVPSRFSGSGSGTDFTLTISSLQPEDFATYYCQQSFNLPITFGQGTKVEIK	9.93
IFWM3395 (antibody, IgG1, V domains shown, mAb; IgG1/kappa said of the parent and of selected mAbs; also called IFWB3130) VH: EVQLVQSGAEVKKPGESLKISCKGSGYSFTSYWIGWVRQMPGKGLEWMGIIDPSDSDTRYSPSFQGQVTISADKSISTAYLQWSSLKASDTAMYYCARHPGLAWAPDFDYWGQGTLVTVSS VL: DIQMTQSPSSLSASVGDRVTITCRASQSISKFLNWYQQKPGKAPKLLIYFASSLQSGVPSRFSGSGSGTDFTLTISSLQPEDFATYYCQQSYDFPITFGQGTKVEIK	9.55
IFWM3417 (antibody, IgG1, V domains shown, mAb; IgG1/kappa said of the parent and of selected mAbs; also called IFWB3152) VH: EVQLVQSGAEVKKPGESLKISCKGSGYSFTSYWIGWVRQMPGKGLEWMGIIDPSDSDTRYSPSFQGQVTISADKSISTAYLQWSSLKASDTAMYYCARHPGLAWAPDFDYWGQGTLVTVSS VL: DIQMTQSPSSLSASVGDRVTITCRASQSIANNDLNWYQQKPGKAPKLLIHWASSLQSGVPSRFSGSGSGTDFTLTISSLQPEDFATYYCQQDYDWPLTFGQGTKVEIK	10.00
